The origin of these recorded values is PubChem BioAssay (NCI).

# Test system: BT-549 breast
# Protocol Summary: NCI-60 one-dose screen, 48 h (100 = growth as untreated, 0 = no growth, -100 = all killed)
# Conditions Used: 10 µM unless noted
The panel holds about 83,000 compounds, 20% with a hit somewhere; the sample as a whole holds those more often.
Parameter growth: see the listing below.
Note: unit % is implicit; provide only the numeric part.

For the molecule `O=[N+]([O-])c1c(Cl)ncnc1Cl` , the measured growth on BT-549 breast was 106

Tested on BT-549 breast, the item `CCOC(=O)C(CCC#N)(CCC#N)C(=O)OCC` showed growth equal to 98

Reading of growth for `Cc1onc(-c2c(F)cccc2Cl)c1-c1ncc(-c2ccc(Br)cc2)o1` with BT-549 breast: 40.7

Fill in: BT-549 breast growth for `O=C(Nc1c(Cl)cc(Cl)cc1Cl)ON=C1CCCCC1` = 113

growth of Nc1ncnc2c1ncn2C1OC(CO)C2OC21 (stereo unspecified) , assay on BT-549 breast, is 110

Observed growth, BT-549 breast, `CCN(C(C)=O)c1ccc([N+](=O)[O-])cc1` : 117

----------
# Tested on: SK-MEL-28 melanoma
# Protocol Summary: NCI-60 one-dose screen, 48 h
# Conditions Used: 10 µM unless noted
# Procedure: Growth inhibition of the SK-MEL-28 human tumor cell line is measured as a screen for anti-cancer activity. Cells are grown in 96 well plates and exposed to the test compound for 48 hours. Compounds are tested at a single concentration, which is 10^-5 M for most compounds. The reported endpoint is percent growth (GI% or GIPRCNT), where numbers from 0 - 100% represent growth inhibition, and numbers from -100% - 0 represent cell death. For example, a value of 40 represents 60% growth inhibition. […]
This is part of a sample that, as a whole, favours compounds with a hit. Of some 83,000 tested, about 20% had one in any assay. The source made the active and inactive calls. Rule for the calls: active = growth percent below 10; inactive = the rest.
Return exactly one item of 1.0 (active), 0.0 (inactive)

Observe how each entry below is paired with its result.
# Molecule, Label
rows = [
    ("CCCCOC(=O)c1ccc(NC(=O)CCl)cc1", 0.0),
    ("Cc1cc(C(=O)NN)c(C#N)c(=O)[nH]1", 0.0),
]

(Q) Per the assay record, what outcome was assigned to `Cc1cccc(-[n+]2noc(N)n2)c1` ?
(A) 0.0

(Q) Test call for this molecule, please: CCCC1OC(c2ccco2)OCC1CC (stereo unspecified)
(A) 0.0

(Q) What outcome does the record of this test show for `Cc1ccc(S(=O)(=O)Oc2ccc3sc4c(CO)ccc(NCCN(C)C)c4c(=O)c3c2)cc1` ?
(A) 1.0

(Q) Tell me the assay call for `COC(=O)c1ccccc1C(=O)c1c(C)cc(C)cc1C` please.
(A) 0.0

(Q) # lookup: test call for `CCCC(=O)c1cccs1`
(A) 0.0

(Q) Record lookup: outcome of this test for `Cc1ccc(C(C)C)c(OCC(=O)O)c1` ?
(A) 0.0

(Q) Query: recorded result category for `NNc1ncnc2nc[nH]c12` in this test
(A) 0.0

(Q) Assay result, entry `O=C(N/N=C\c1ccc(Cl)cc1Cl)c1ccncc1` — outcome?
(A) 0.0

(Q) Which result was noted for this molecule in the test: `O=S(=O)(c1ccc(NC(=S)NCc2cccnc2)cc1)N1CCCCC1`
(A) 0.0

(Q) What call does the record list for `Nc1nnc2cc(F)ccc2n1` ?
(A) 0.0

(Q) // outcome(item) with item = `CCC(=O)Oc1ccc2ccccc2c1`
(A) 0.0

(Q) For `CCCCCC#CC(=O)O` , what call appears in the results of this test?
(A) 0.0

(Q) Name the outcome recorded for `CC1(C)CCC(C)(C)NC(=S)N1` in the assay.
(A) 0.0

(Q) Please let me know the test result on file for `Cc1nc(C)c(C(=O)O)cc1C(=O)O` .
(A) 0.0

(Q) How was `COc1ccc2c(Cl)cc(NC(=O)Nc3c(C)cccc3C)nc2c1` classified in this test?
(A) 0.0

(Q) Recorded test call requested for `COc1ccc(/C=C\C(=O)/C=C/c2ccc(OC)cc2)cc1`
(A) 0.0
